molecular target: B7-H3 on Calu-6 cells (human) (UniProt Q5ZPR3); test: 177Lu-labelled peptide on Calu-6 cells, % cell associated fraction; B = 25<%<=50
Sequence (Q5ZPR3 29-534): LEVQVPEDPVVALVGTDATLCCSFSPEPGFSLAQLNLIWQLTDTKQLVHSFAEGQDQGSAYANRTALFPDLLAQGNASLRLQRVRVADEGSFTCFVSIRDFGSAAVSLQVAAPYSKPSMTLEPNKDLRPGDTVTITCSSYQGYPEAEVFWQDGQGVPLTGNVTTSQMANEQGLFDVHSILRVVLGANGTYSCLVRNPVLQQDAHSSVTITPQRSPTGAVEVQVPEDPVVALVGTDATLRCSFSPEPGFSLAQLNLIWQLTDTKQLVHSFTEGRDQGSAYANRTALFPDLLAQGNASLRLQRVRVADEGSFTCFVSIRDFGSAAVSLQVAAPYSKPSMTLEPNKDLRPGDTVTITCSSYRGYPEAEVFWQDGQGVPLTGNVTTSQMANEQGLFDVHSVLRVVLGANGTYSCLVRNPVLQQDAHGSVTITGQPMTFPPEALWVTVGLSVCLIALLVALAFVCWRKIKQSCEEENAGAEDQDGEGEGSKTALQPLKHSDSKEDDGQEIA
Positions of bridges follow the written chain, without caps; N, C: chain ends. Non-standard residues stand in square brackets, D forms with d. Groups on a side chain read outwards from the residue. *: point of attachment. DOTA = O=C(O)CN1CCN(CC(=O)O)CCN(CC(=O)*)CCN(CC(=O)O)CC1; Trp(5-F) = N[C@@H](Cc1c[nH]c2ccc(F)cc12)C(=O)O; Ala(4-THP) = N[C@@H](CC1CCOCC1)C(=O)O; Pip(CH2CO2H)Ala = not defined here; Val(3-OH) = CC(C)(O)[C@H](N)C(=O)O; Tle = CC(C)(C)[C@H](N)C(=O)O; hLeu = CC(C)CC[C@H](N)C(=O)O
quantity.kind: % cell associated fraction

The value of % cell associated fraction measured for the binder Ac-[hLeu]YC[Tle]G[PipAla][Ala(4-THP)]DVYCXF[hydroxyVal][dK]([dE-DOTA])-OH (disulfide 3-11 (inferred); not fully specified (residue 12); printed as Ac-hLeu-Y-C-Tbg-G-PipAla-ThpA-D-V-Y-C-5FW-F-hydroxyVal-dLys(dGlu-DOTA)-COOH, disulfide) [Cpd 429] turned out to be 25 to 50%

The value of % cell associated fraction measured for the binder Ac-[hLeu]YCIG[Pip(CH2CO2H)Ala][Ala(4-THP)]DVYC[Trp(5-F)]F[Val(3-OH)][dK](DOTA)-OH (disulfide 3-11 (inferred); reading uncertain; also: printed as Ac-hLeu-Y-C-Ile-G-[Pip(CH2CO2H)Ala]-ThpA-D-V-Y-C-5FW-F-hydroxyVal-dLys(DOTA)-COOH; disulfide) [Cpd 318] turned out to be 25 to 50%

The value of % cell associated fraction measured for the binder Ac-[hLeu]YC[Tle]G[Pip(PEG4-DOTA)Ala][Ala(4-THP)]DVYC[Trp(5-F)]F[Val(3-OH)][dA]-NH2 (disulfide 3-11 (inferred)) [Cpd 384] turned out to be 25 to 50%
